The reported measurements were obtained from patent US11230525B2.

Biological target: UniProtKB Q9BY41
Sequence (Q9BY41 whole entry, species assumed): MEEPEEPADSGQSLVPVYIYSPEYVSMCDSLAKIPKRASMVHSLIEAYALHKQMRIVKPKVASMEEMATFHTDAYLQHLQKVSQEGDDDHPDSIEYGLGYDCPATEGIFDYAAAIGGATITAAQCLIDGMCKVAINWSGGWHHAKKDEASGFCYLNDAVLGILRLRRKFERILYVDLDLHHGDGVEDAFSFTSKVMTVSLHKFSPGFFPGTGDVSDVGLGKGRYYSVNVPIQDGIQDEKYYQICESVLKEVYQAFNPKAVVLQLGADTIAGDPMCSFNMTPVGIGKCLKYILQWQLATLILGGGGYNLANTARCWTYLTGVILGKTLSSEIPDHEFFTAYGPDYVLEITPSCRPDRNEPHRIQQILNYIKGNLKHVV
Test: HDAC enzyme fluorescence assay, HDAC 8
Assay type: biochemical
Conditions: read-out: IC50 against HDAC 8
recorded.endpoint: pIC50
Just the number, please; pIC50 means minus log10 of the concentration in mol/L.

Dear colleague, I am looking for the recorded pIC50 of the following compound: CCCSS/C=C\C[S+]([O-])c1cccc(OC)c1 (stereo not shown) [Example 18]
7.46

----------
Test system: colorectal cancer cell line (HCT-15)
Test: Cancer proliferation inhibitory activity (SRB, GI50), HCT-15
Type: cell-based
Settings: Homo sapiens, 48 hours
recorded.endpoint: GI50 (nM)
Provide the reading as a plain figure in nM.

Examples with answers:
C=CCSS/C=C/C[S+]([O-])c1cccc(OC)c1 (stereo not shown)	2580
COc1cccc([S+]([O-])C/C=C\SSCc2ccccc2)c1 (stereo not shown)	2600
COc1cccc([S+]([O-])C/C=C\SSCc2ccc(Cl)cc2)c1 (stereo not shown)	3650
COc1ccc([S+]([O-])C/C=C\SSCc2ccc(F)cc2)cc1 (stereo not shown)	1450
CCCSS/C=C/C[S+]([O-])c1cccc(OC)c1 (stereo not shown)	2170

Dear colleague, I am looking for the recorded GI50 of the following molecule: COc1cccc([S+]([O-])C/C=C/SSCc2ccccc2)c1 (stereo not shown)
2080

Ok, now [O-][S+](C/C=C/SSCc1ccc(F)cc1)c1ccccc1 (stereo not shown)
10400

Ok, now [O-][S+](C/C=C/SSCc1ccccc1)c1ccccc1 (stereo not shown)
3970

Ok, now COc1ccc(CSS/C=C/C[S+]([O-])c2ccccc2)cc1 (stereo not shown)
3030
